As shown below, each of these binders has a reported In vitro activity compared with native peptide (%) vs. GIP value.
# TARGET: T1, human GIP receptor (human, UniProt P48546 22-466)
# T1 sequence (looked up): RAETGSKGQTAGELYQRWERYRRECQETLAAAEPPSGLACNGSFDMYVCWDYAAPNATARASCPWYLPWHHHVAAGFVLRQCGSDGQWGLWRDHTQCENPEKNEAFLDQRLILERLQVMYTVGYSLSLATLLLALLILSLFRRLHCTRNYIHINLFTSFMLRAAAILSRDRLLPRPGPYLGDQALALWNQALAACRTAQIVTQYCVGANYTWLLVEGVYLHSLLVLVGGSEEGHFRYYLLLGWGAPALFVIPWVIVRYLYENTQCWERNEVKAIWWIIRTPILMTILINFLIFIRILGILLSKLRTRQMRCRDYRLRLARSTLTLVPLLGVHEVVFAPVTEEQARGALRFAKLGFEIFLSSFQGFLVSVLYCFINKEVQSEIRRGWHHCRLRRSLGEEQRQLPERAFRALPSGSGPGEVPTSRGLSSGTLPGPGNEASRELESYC
# ASSAY INFO: cell-based or functional assay
Bridges are numbered along the chain shown (N, C = ends). Where no end group is shown, it is not given here. [ ]: non-standard residue; d: D form. The star is where a group is joined. Acetyl(2-(4-imidazolyl)) = O=C(Cc1c[nH]cn1)*; Aib = CC(C)(N)C(=O)O
ENDPOINT: In vitro activity compared with native peptide (%) vs. GIP

>  <BINDER>
H[Aib]QGTFTSDVSSYLDGQAAKEFVAWLLKGC [Triple agonist of SEQ ID NO: 6]

>  <UNIT SPEC>
%

>  <QUAL>
<

>  <ASSAY RESULT>
0.1

$$$$
>  <BINDER>
{Acetyl(2-(4-imidazolyl))}-GEGTFISDYSIQLDEIAVQDFVEWLLAQKPSSGAPPPSHG [Triple agonist of SEQ ID NO: 13]

>  <UNIT SPEC>
%

>  <QUAL>
<

>  <ASSAY RESULT>
0.1

$$$$
>  <BINDER>
{Acetyl(2-(4-imidazolyl))}-[Aib]QGTFTSDYSIAMDEIACKDFVNWLLNTK (bridge 15-19) [Triple agonist of SEQ ID NO: 61]

>  <UNIT SPEC>
%

>  <QUAL>
=

>  <ASSAY RESULT>
2.8

$$$$
>  <BINDER>
H[Aib]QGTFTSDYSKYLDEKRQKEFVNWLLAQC (also: ring formation, positions not given here) [Triple agonist of SEQ ID NO: 56]

>  <UNIT SPEC>
%

>  <QUAL>
=

>  <ASSAY RESULT>
0.8

$$$$
>  <BINDER>
Y[Aib]QGTFTSDYSKYLDEKRAKEFVQWLLDCHPSSGQPPPS (bridge 16-20) [Triple agonist of SEQ ID NO: 97]

>  <UNIT SPEC>
%

>  <QUAL>
=

>  <ASSAY RESULT>
2.6

$$$$

Recorded values, source patent US20240024426A1.
